{"compound": "C=Cc1ccc(Cl)cc1", "log10 vapour pressure (mmHg)": -0.0885}
{"compound": "CCOCCOCCOC(C)=O", "log10 vapour pressure (mmHg)": -1}
{"compound": "CNc1nc(NC(C)C)nc(SC)n1", "log10 vapour pressure (mmHg)": -6}
{"compound": "Cc1ccccc1Br", "log10 vapour pressure (mmHg)": 0.0186}
{"compound": "CC1CCCC(C)C1 (stereo not drawn)", "log10 vapour pressure (mmHg)": 1.3}
{"compound": "CN(C)C(=O)Nc1cccc(C(F)(F)F)c1", "log10 vapour pressure (mmHg)": -6.03}
{"compound": "c1ccc([As](c2ccccc2)c2ccccc2)cc1", "log10 vapour pressure (mmHg)": -4.3}
{"compound": "COP(=S)(OC)SCn1nnc2ccccc2c1=O", "log10 vapour pressure (mmHg)": -5.8}
{"compound": "CCCCCCN", "log10 vapour pressure (mmHg)": 0.954}
{"compound": "c1cc2ccc3ccc4ccc5ccc6ccc1c1c2c3c4c5c61", "log10 vapour pressure (mmHg)": -11.7}
{"compound": "CNC(=O)Oc1cccc2ccccc12", "log10 vapour pressure (mmHg)": -5.87}
{"compound": "C=CCCCCCCCCCCCC", "log10 vapour pressure (mmHg)": -1.82}
{"compound": "Oc1ccc(O)cc1", "log10 vapour pressure (mmHg)": -4.62}
{"compound": "CCCSSCCC", "log10 vapour pressure (mmHg)": -0.291}
{"compound": "CCC(C)(CC)CC", "log10 vapour pressure (mmHg)": 1.36}
{"compound": "CC#CC", "log10 vapour pressure (mmHg)": 2.85}
{"compound": "CCC(C)(CC)c1cc(NC(=O)c2c(OC)cccc2OC)on1", "log10 vapour pressure (mmHg)": -8.38}
{"compound": "Cc1ccc(N)c(N)c1", "log10 vapour pressure (mmHg)": -3.2}
{"compound": "N#CCN(CC#N)CC#N", "log10 vapour pressure (mmHg)": -6.5}
{"compound": "ClC(Cl)(Cl)Br", "log10 vapour pressure (mmHg)": 1.59}
{"compound": "CC(=O)OCC(C)C", "log10 vapour pressure (mmHg)": 1.25}
{"compound": "Clc1ccc(Oc2cc(Cl)cc(Cl)c2)cc1", "log10 vapour pressure (mmHg)": -3.76}
{"compound": "O=C(O)CCCCCCCCC(=O)O", "log10 vapour pressure (mmHg)": -7.26}
{"compound": "ClC/C=C/CCl", "log10 vapour pressure (mmHg)": 0.574}
{"compound": "O=C(Cl)CCl", "log10 vapour pressure (mmHg)": 1.4}
{"compound": "COCCN(C(=O)CCl)c1c(C)cccc1C", "log10 vapour pressure (mmHg)": -4.95}
{"compound": "CCSCCSP(=S)(OC)OC", "log10 vapour pressure (mmHg)": -4.77}
{"compound": "CCCC(=NOCC)C1=C(O)CC(C2CCCSC2)CC1=O (stereo not drawn)", "log10 vapour pressure (mmHg)": -7.12}

----------
{"compound": "CCCC=CC(=O)OCC", "unit.descriptor": "°C", "boiling point": 174}
{"compound": "CCCCC(CC)COCCO (stereo not drawn)", "unit.descriptor": "°C", "boiling point": 229}
{"compound": "C=C(C)C1CC=C(C=O)CC1 (stereo not drawn)", "unit.descriptor": "°C", "boiling point": 240}

Data provenance: the OPERA property sets (Mansouri et al. 2018)
